Source listed as PubChem BioAssay AID328.

- Tested on: BDF1 mice, P388 leukemia ip, median survival T/C
- assay-overview: NCI In Vivo Anticancer Drug Screen. Data for tumor model P388 Leukemia (intraperitoneal) in B6D2F1 (BDF1) mice
- experimental-context: endpoint: median survival time; dose: 200.0 mg/kg/injection; schedule: Q04DX003 (ip); vehicle: Klucel (hydroxypropylcellulose) (HPC); higher = longer survival
Toxic doses and inconclusive results are not listed.
This section presents compounds with their documented T/C values.

Item under review: COB(OC)OC . Reported T/C?
104 % of control

Same again, this time with CCOC(=O)c1cc(C(=O)OCC)c(C#N)c(=O)[nH]1
91 % of control

Same again, this time with COC(=O)CCC#CC#CCCC(=O)OC
104 % of control

Same again, this time with COC(CC(C)CCCC(C)(C)O)OC (configuration not stated)
112 % of control

Same again, this time with O=C(N/N=C/c1ccc2c(c1)CCC2)c1ccccc1
100 % of control

Same again, this time with COc1ccc(/C=C/C(=O)c2ccc(OC)cc2)cc1
104 % of control

Same again, this time with O=[N+]([O-])c1cc([N+](=O)[O-])c(Nn2c3ccccc3c3ccccc32)c([N+](=O)[O-])c1
113 % of control

* * *

- System: BDF1 mice, P388 leukemia ip, median survival T/C
- assay-overview: NCI In Vivo Anticancer Drug Screen. Data for tumor model P388 Leukemia (intraperitoneal) in B6D2F1 (BDF1) mice
- experimental-context: endpoint: median survival time; dose: 12.5 mg/kg/injection; schedule: Q01DX009 (ip); vehicle: saline
Toxic doses and inconclusive results are not listed. The calls were made as follows: active = survival T/C of 150% or more; inactive = T/C below 125% in these data.
Entry note: the call must match one of active, inactive

Please review the following examples before continuing.
{"columns": ["compound", "discrete-label"],
 "data": [
  ["CN=S(=O)(OCC1CCC1COS(=O)(=NC)c1ccc(C)cc1)c1ccc(C)cc1 (centres undefined)", "inactive"],
  ["Cc1ccc(Oc2ccc3cc[n+](C)cc3c2)cc1", "inactive"],
  ["C1CC[N-]CC1.C1CC[N-]CC1.C1CC[N-]CC1.[Cl][Rh]([Cl])[Cl]", "active"]
]}

Test call, this compound: CS(C)=O.CS(C)=O.CS(C)=O.[Cl][Rh]([Cl])[Cl]
inactive

* * *

- System: BDF1 mice, P388 leukemia ip, median survival T/C
- assay-overview: NCI In Vivo Anticancer Drug Screen. Data for tumor model P388 Leukemia (intraperitoneal) in B6D2F1 (BDF1) mice
- experimental-context: endpoint: median survival time; dose: 100.0 mg/kg/injection; schedule: Q01DX009 (ip); vehicle: saline
Inconclusive results and toxic doses are left out. Rule for the calls: active = survival T/C of 150% or more; inactive = T/C below 125% in these data.
Entry note: the call must match one of active, inactive

Please review the following examples before continuing.
{"columns": ["compound", "discrete-label"],
 "data": [
  ["COc1ccc(C(=O)c2cc(OC)c(OC)c(OC)c2)cc1OC", "inactive"],
  ["CC(N)Cc1ccc(N(C)C)cc1F (stereo not drawn)", "inactive"],
  ["O=C(CSc1cc(-c2ccc(Cl)cc2)s[s+]1)c1ccc(Cl)cc1", "inactive"],
  ["CC1CCC2(C)CCC(C(C)C)C2(O)CC1 (stereo not drawn)", "inactive"],
  ["CC(C)NCC(O)COc1ccc2ncsc2c1 (stereo not drawn)", "inactive"]
]}

Test call, this compound: Cn1c(O)c(C=N)c(=O)[nH]c1=O
inactive

Same again, this time with O=C1OC(C(O)CO)C(O)=C1O (stereo not drawn)
inactive

Same again, this time with CCOC(=O)CSC(=S)SCC(=O)OCC
inactive

Same again, this time with NC(N)=NCCCCC(=O)Nc1ccc(S(N)(=O)=O)cc1
inactive

Same again, this time with O=C(O)C(O)C(O)C(O)C(O)CO.[Mn] (stereo not drawn)
inactive

Same again, this time with C[n+]1ccc2ccccc2c1
inactive

Same again, this time with CN1CCN(Cc2nc3cccc4c3c([n+]2[O-])-c2ccccc2-4)CC1
active

Same again, this time with CC(C)N1c2c(nc(N)[nH]c2=O)NCC1CNc1ccc(C(=O)NC(CCC(=O)O)C(=O)O)cc1 (stereo not drawn)
inactive

* * *

- Test system: BDF1 mice, P388 leukemia ip, median survival T/C
- assay-overview: NCI In Vivo Anticancer Drug Screen. Data for tumor model P388 Leukemia (intraperitoneal) in B6D2F1 (BDF1) mice
- experimental-context: endpoint: median survival time; dose: 12.5 mg/kg/injection; schedule: Q01DX009 (ip); vehicle: water
Inconclusive results and toxic doses are left out. How the source made its calls: active means survival T/C of 150% or more; inactive means T/C below 125% in these data.
Entry note: the call must match one of active, inactive

{"columns": ["compound", "discrete-label"],
 "data": [
  ["O=Cc1ccc(/C=C2\\NC(=O)NC2=O)cc1", "inactive"],
  ["COC1=C(O)C(C(O)CO)OC1=O (configuration not stated)", "inactive"],
  ["N=C1N=C(C(F)(F)F)N=C1c1[nH]c(C(F)(F)F)nc1N", "inactive"],
  ["COc1cccc2c1C(=O)c1c(O)c3c(c(O)c1C2=O)C[C@@](O)(/C(CO)=N/NC(=O)c1ccccc1)C[C@@H]3OC1CC(N)C(O)C(C)O1 (some centres not stated)", "active"],
  ["C[n+]1ccc(Nc2ccc(NC(=O)c3ccc(N)cc3)cc2)cc1", "inactive"],
  ["CNNCc1ccc(/C=N/NC(N)=S)cc1", "inactive"]
]}

As a next step, examine the compound that follows.
Test call, this compound: COc1ccc(C2=CC(c3ccc4c(c3)OCO4)c3c(c4ccccc4oc3=O)O2)cc1OC (configuration not stated)
inactive

* * *

This section presents compounds with their documented T/C values.
- Test system: BDF1 mice, P388 leukemia ip, median survival T/C
- assay-overview: NCI In Vivo Anticancer Drug Screen. Data for tumor model P388 Leukemia (intraperitoneal) in B6D2F1 (BDF1) mice
- experimental-context: endpoint: median survival time; dose: 200.0 mg/kg/injection; schedule: Q01DX009 (ip); vehicle: saline with Tween-80; higher = longer survival
Toxic doses and inconclusive results are not listed.

# example entries with known answers
{"columns": ["molecular-string", "readout-label", "recorded-result"],
 "data": [
  ["C(=NCCN=Cc1c[nH]c2ccccc12)c1c[nH]c2ccccc12", "T/C", "92 % of control"],
  ["CC(C)(C)c1cc(C(C)(C)c2ccccc2)cc(Cc2cc(C(C)(C)c3ccccc3)cc(C(C)(C)C)c2O)c1O", "T/C", "124 % of control"],
  ["CCCCCCC(CCCCCC)(CCCCCC)B1OCCO1", "T/C", "104 % of control"],
  ["C[C@H]1C[C@@H]2[C@H]([C@@H](O)C[C@@]3(C)[C@H]2CC[C@]3(O)C(=O)CO)[C@@]2(C)C=CC(=O)C=C12", "T/C", "104 % of control"]
]}

Note: attention shifts to another entry.
Item under review: C=CCOc1ccccc1OC . Reported T/C?
100 % of control

* * *

- Test system: BDF1 mice, P388 leukemia ip, median survival T/C
- assay-overview: NCI In Vivo Anticancer Drug Screen. Data for tumor model P388 Leukemia (intraperitoneal) in B6D2F1 (BDF1) mice
- experimental-context: endpoint: median survival time; dose: 12.5 mg/kg/injection; schedule: Q01DX009 (ip); vehicle: saline; higher = longer survival
Toxic doses and inconclusive results are not listed.
This section presents compounds with their documented T/C values.

# example entries with known answers
{"columns": ["compound", "readout-label", "recorded-result"],
 "data": [
  ["[O]=[Cr](=[O])([OH])[O][Cr](=[O])(=[O])[OH]", "T/C", "100 % of control"],
  ["CCCC(N=Cc1ccccc1O)C(=O)O.CCCC(N=Cc1ccccc1O)C(=O)O.[Fe] (stereo unspecified)", "T/C", "86 % of control"],
  ["O=C(/C(=C\\c1ccccc1)CBr)c1ccc(Br)cc1", "T/C", "110 % of control"],
  ["Cc1nccn1C[c-]1[c-][c-][c-][c-]1.[Fe].[c-]1[c-][c-][cH-][c-]1", "T/C", "99 % of control"]
]}

Item under review: CCOC(=O)C(N)C[S][Sn]([CH3])([CH3])[Cl] (stereo unspecified) . Reported T/C?
124 % of control

Same again, this time with CCCCOC1CC2c3ccccc3C1c1cccc[n+]12 (stereo unspecified)
109 % of control

* * *

- Test system: BDF1 mice, P388 leukemia ip, median survival T/C
- assay-overview: NCI In Vivo Anticancer Drug Screen. Data for tumor model P388 Leukemia (intraperitoneal) in B6D2F1 (BDF1) mice
- experimental-context: endpoint: median survival time; dose: 100.0 mg/kg/injection; schedule: Q04DX003 (ip); vehicle: water
Toxic doses and inconclusive results are not listed. How the source made its calls: active means survival T/C of 150% or more; inactive means T/C below 125% in these data. Residues, ends and D or L forms follow the SMILES beside them.
Entry note: the call must match one of active, inactive

Please review the following examples before continuing.
{"columns": ["compound", "discrete-label"],
 "data": [
  ["CC(C(=O)O)N(CC(=O)O)CC(=O)O.[Co+2].[NH-]CC(=O)O (stereo not drawn)", "inactive"],
  ["Nc1ccc2cn[nH]c2c1", "inactive"],
  ["CCOC(=O)Nc1cncc(NC(=O)OCC)n1", "inactive"],
  ["Cc1ccc(/C=C2\\NC(=O)NC2=O)cc1", "inactive"],
  ["COc1ccc(C2=CC(c3ccc4c(c3)OCO4)c3c(c4ccccc4oc3=O)O2)cc1OC (stereo not drawn)", "inactive"]
]}

Test call, this compound: O=c1[nH]c2ccccc2c(=O)n1C1CCCCC1
inactive

Same again, this time with COC(=O)/C=C/c1c[nH]c2nccnc12
inactive

Same again, this time with O=Cc1ccc(/C=C2\NC(=O)NC2=O)cc1
inactive

Same again, this time with C[n+]1cc2c3ccccc3c(N)cc2c2ccccc21
active

Same again, this time with O=P1(N(CCCl)CCCl)NCCCO1 (stereo not drawn)
inactive

Same again, this time with CC(C)C(NC(=O)C(NC(=O)C(CCCN=C(N)N)NC(=O)C(N)CCCCN)C(C)C)C(N)=O (stereo not drawn) (H-KRVV-NH2; configuration not given here)
inactive

Same again, this time with [Cl][Pt+2]([Cl])([Cl])[Cl].c1ccc(C2CC[N-]CC2)cc1.c1ccc(C2CC[N-]CC2)cc1
inactive

Same again, this time with O=C1CCC2N1CCC1CCCCN12 (stereo not drawn)
inactive
